assay: C. albicans growth inhibition with fluconazole, primary screen, CaCi-2 strain, Alamar Blue fluorescence (AID 1979);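 note: all wells also contain fluconazole at 8 µg/ml as a sub-toxic cotreatment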; settings: C. albicans CaCi-2 (fluconazole-resistant clinical isolate) + fluconazole, 48 h, hits give high values, concentration not given here
In all, about 300,000 compounds went through this assay and about 1,700 (0.57%) were called active. Not shown: some 2% with an inconclusive outcome. For the sample, actives were picked, then their nearest neighbours and some compounds at random.
Give Yes when the value for growth inhibition is at least 20%. Give No when it is less.

{"substance_smiles": "O=C(/C=C/c1ccco1)Nc1cccc(-c2nc3ccccc3[nH]2)c1", "label": "Yes"}
{"substance_smiles": "Cc1c(Cl)c([N+](=O)[O-])nn1CCCC(=O)Nc1cc(Cl)ccc1Cl", "label": "No"}
{"substance_smiles": "COc1cc2cc(C(=O)N/N=C/c3cccc(OC)c3OC)[nH]c2cc1OC", "label": "No"}
{"substance_smiles": "S=c1[nH]nc(-c2cccs2)n1/N=C/c1cccs1", "label": "Yes"}
{"substance_smiles": "COc1cccc(/C=N/NC(=O)c2[nH]nc3c2CCc2ccccc2-3)c1O", "label": "Yes"}
